System: A-375
Assay Method Text: Antiproliferative activity against human A375 cells after 48 hrs by MTT assay
Format: functional, cell-based
Conditions: A-375, 48 h
Measured Attribute: IC50 (µM)
Numbers only, in µM.

Ask: Endpoint output: IC50 of CCCCc1ccc2nc3ccccc3c(NCc3nc4ccccc4[nH]3)c2c1 . Value?
Result: 3.2

----------
Test system: K562
Assay Method Text: Antiproliferative activity against human K562 cells after 48 hrs by MTT assay
Type: functional, cell-based
Conditions: K562, 48 h
Label criterion met when IC50 < 8 µM; otherwise criterion not met.

| Item Smiles | Classification |
| --- | --- |
| Clc1ccc2nc3ccccc3c(NCc3nc4ccccc4[nH]3)c2c1 | criterion not met |
| Cc1cccc2c(NCc3nc4ccccc4[nH]3)c3ccccc3nc12 | criterion not met |
| COc1cccc2c(Nc3nc4ccccc4[nH]3)c3ccccc3nc12 | criterion met |
| COc1ccc2nc3ccccc3c(Nc3nc4ccccc4[nH]3)c2c1 | criterion not met |
| CCCCc1ccc2nc3ccccc3c(NCc3nc4ccccc4[nH]3)c2c1 | criterion met |

Ask: Could you please tell me whether IC50 recorded for c1ccc2[nH]c(-c3ccc(Nc4c5ccccc5nc5ccccc45)cc3)nc2c1 is less than 8 µM?
Result: criterion met

Ask: Another compound to look at: c1ccc2[nH]c(CNc3c4ccccc4nc4ccccc34)nc2c1
Result: criterion not met

Ask: Then what about the compound COc1cccc2c(NCc3nc4ccccc4[nH]3)c3ccccc3nc12 ?
Result: criterion met

Ask: And for Cc1ccc2c(NCc3nc4ccccc4[nH]3)c3ccccc3nc2c1 ?
Result: criterion not met

Ask: What would you report for c1ccc2[nH]c(Sc3c4ccccc4nc4ccccc34)nc2c1 ?
Result: criterion not met

Ask: Request: Cc1ccc2nc3ccccc3c(NCc3nc4ccccc4[nH]3)c2c1
Result: criterion not met

Ask: Can you handle c1ccc2[nH]c(Nc3c4ccccc4nc4ccccc34)nc2c1 next?
Result: criterion not met

Ask: Param item: Fc1ccc2c(NCc3nc4ccccc4[nH]3)c3ccccc3nc2c1
Result: criterion not met

Ask: Do the same for COc1ccc2nc3ccccc3c(NCc3nc4ccccc4[nH]3)c2c1 please
Result: criterion met

Ask: Try Fc1cc2nc3ccccc3c(NCc3nc4ccccc4[nH]3)c2cc1F next.
Result: criterion not met

Ask: What would you report for CCc1ccc2nc3ccccc3c(NCc3nc4ccccc4[nH]3)c2c1 ?
Result: criterion met

Ask: Also need COc1ccc2c(NCc3nc4ccccc4[nH]3)c3ccccc3nc2c1 , thanks.
Result: criterion not met

----------
Assay Method Text: Antiproliferative activity against human CNE2 cells after 48 hrs by MTT assay
Format: functional, cell-based
Conditions: CNE-2, 48 h
Measured Attribute: IC50 (nM)
Numbers only, in nM.

Ask: Consider the compound shown here: CCCCc1ccc2nc3ccccc3c(NCc3nc4ccccc4[nH]3)c2c1 What is its recorded IC50?
Result: 2620

Just for reference, ChEMBL document CHEMBL3399995 is where these values come from.
